Biological target: Sodium-dependent noradrenaline transporter (Homo sapiens, UniProt P23975)
Sequence (P23975 whole entry): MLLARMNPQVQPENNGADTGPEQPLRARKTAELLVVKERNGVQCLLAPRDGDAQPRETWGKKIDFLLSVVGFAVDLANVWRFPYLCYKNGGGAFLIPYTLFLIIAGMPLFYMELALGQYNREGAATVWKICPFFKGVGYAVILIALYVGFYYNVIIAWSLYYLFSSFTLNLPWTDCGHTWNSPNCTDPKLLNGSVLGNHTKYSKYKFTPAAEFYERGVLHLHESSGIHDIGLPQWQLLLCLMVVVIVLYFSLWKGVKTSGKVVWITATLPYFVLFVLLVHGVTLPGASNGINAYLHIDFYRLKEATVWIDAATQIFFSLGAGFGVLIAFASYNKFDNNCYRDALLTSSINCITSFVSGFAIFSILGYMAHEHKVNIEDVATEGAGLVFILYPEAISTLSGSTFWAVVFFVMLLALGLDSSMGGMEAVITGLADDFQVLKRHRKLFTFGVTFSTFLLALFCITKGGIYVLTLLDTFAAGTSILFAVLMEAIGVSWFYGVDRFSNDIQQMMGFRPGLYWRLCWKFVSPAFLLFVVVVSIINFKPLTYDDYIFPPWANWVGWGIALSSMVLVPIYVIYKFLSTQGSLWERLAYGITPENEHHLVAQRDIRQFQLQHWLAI
Assay: DRUGMATRIX: Norepinephrine Transporter radioligand binding (ligand: [125I] RTI-55)
Format: cell membranes, MDCK, Membrane
Settings: Not Active = under 50% inhibition at 10 µM; read-out: Ki
propertyLabel: pKi
Reminder that pKi is minus the log10 of a molar concentration.

Some solved entries appear below for comparison.
Lab note: compound Clc1ccccc1C(c1ccccc1)(c1ccccc1)n1ccnc1 [CLOTRIMAZOLE] tested on Sodium-dependent noradrenaline transporter (Homo sapiens, UniProt P23975); recorded pKi was 5.10

Lab note: compound O=C1c2c(O)ccc(O)c2C(=O)c2c(NCCNCCO)ccc(NCCNCCO)c21 [MITOXANTRONE] tested on Sodium-dependent noradrenaline transporter (Homo sapiens, UniProt P23975); recorded pKi was 5.31

Lab note: compound CCCCCCCCCc1ccc(O)cc1 [4-NONYLPHENOL] tested on Sodium-dependent noradrenaline transporter (Homo sapiens, UniProt P23975); recorded pKi was 5.91

Lab note: compound Clc1ccc(C(c2ccccc2Cl)C(Cl)Cl)cc1 (stereo unspecified) [MITOTANE] tested on Sodium-dependent noradrenaline transporter (Homo sapiens, UniProt P23975); recorded pKi was 6.09

Lab note: compound CC(CCc1ccccc1)NCC(O)c1ccc(O)c(C(N)=O)c1 (stereo unspecified) [LABETALOL] tested on Sodium-dependent noradrenaline transporter (Homo sapiens, UniProt P23975); recorded pKi was 5.48

Moving on to the next compound.
Lab note: compound Oc1c(Cl)cc(Cl)cc1Sc1cc(Cl)cc(Cl)c1O [BITHIONOL] tested on Sodium-dependent noradrenaline transporter (Homo sapiens, UniProt P23975); recorded pKi was 5.91
